Source of measurements: the supplement of paper PMC10567573

B1: WSB1 (parent)
chain: FSHDGLHVASLADDKMVRFWRIDE

variants of: B1; assay: protein stability index of a GFP-peptide fusion (GPS, HEK-293T) (PSI 1-6); higher = more stable; conditions: c terminus: a fixed tail appended;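 also: lentivirally expressed fusions sorted by FACS into six bins by GFP to DsRed ratio, PSI derived from sequencing read proportions per bin multiplied by bin number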
property: protein stability index
Just the number, please, no unit attached.

# mutation.key, protein stability index
rows = [
    ("V17R", 2.03),
    ("M16R", 2.76),
    ("A12P", 1.57),
    ("W20M", 2.67),
]

Q: Given `H3A` , state its recorded protein stability index.
A: 2.89

Q: Then `L11N` ?
A: 1.78

Q: Then `E24V` ?
A: 2.12

Q: Then `F1C` ?
A: 2.99

Q: Then `W20N` ?
A: 2.66
